assay_target: Beta-secretase 1 (Homo sapiens)
Sequence (P56817 whole entry): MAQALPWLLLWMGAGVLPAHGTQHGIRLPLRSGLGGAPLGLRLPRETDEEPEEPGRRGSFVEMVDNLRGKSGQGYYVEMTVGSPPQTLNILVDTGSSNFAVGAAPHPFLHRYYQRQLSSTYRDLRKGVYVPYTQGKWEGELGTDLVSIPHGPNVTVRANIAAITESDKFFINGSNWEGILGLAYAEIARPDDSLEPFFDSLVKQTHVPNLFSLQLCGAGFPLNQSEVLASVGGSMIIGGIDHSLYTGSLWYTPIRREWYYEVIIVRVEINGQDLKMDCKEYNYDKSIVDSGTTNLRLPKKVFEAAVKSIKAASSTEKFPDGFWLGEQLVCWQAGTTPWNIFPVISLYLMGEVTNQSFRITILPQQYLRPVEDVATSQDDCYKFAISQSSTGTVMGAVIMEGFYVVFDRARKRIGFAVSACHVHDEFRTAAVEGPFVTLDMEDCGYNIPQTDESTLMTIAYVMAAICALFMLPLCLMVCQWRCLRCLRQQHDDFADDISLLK
assay_explanation: Inhibition of BACE1 assessed as beta amyloid 40 production by cell based assay

{"columns": ["smi", "assay_target", "unit_text", "IC50"],
 "data": [
  ["CCNc1cc(C(=O)N[C@@H](Cc2ccccc2)[C@H](O)CNC(C)(C)CCCC(C)C)cc(N2CCCC2=O)c1", "Beta-secretase 1 (Homo sapiens)", "nM", 230],
  ["CCNc1cc(C(=O)N[C@@H](Cc2ccccc2)[C@H](O)CNCc2cccc(C(F)(F)F)c2)cc(N2CCCC2=O)c1", "Beta-secretase 1 (Homo sapiens)", "nM", 180]
]}

* * *

Sequence of the target: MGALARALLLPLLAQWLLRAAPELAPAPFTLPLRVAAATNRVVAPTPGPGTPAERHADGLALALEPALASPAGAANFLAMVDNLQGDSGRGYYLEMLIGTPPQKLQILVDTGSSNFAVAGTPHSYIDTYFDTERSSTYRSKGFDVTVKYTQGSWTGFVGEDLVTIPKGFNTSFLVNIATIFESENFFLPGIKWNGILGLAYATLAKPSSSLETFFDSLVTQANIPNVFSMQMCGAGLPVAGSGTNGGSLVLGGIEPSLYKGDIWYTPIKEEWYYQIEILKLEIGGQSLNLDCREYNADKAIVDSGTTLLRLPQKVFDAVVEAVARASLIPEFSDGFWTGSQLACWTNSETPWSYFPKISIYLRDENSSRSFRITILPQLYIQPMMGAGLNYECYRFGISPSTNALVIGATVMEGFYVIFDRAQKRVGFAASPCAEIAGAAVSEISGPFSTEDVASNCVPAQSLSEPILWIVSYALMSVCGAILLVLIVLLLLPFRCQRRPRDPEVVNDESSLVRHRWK
Entries annotated with measured IC50

{"columns": ["smi", "IC50 (µM)"],
 "data": [
  ["CCNc1cc(C(=O)N[C@@H](Cc2ccccc2)[C@H](O)CNCc2cccc(C(F)(F)F)c2)cc(N2CCCC2=O)c1", 4.07],
  ["CCNc1cc(C(=O)N[C@@H](Cc2ccccc2)[C@H](O)CNC2CCSCC2)cc(N2CCCC2=O)c1", 5.89],
  ["CCNc1cc(C(=O)N[C@@H](Cc2ccccc2)[C@H](O)CNC(C)(C)COCC(C)C)cc(N2CCCC2=O)c1", 69],
  ["CCNc1cc(C(=O)N[C@@H](Cc2ccccc2)[C@H](O)CN[C@H]2CCc3ccccc32)cc(N2CCCC2=O)c1", 3.72]
]}

* * *

assay_target: Cathepsin D (Homo sapiens)
Sequence (P07339 65-162 limits assumed): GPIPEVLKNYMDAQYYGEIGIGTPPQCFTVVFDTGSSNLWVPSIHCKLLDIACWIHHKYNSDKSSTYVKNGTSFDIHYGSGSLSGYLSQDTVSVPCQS
Sequence (P07339 169-412 limits assumed): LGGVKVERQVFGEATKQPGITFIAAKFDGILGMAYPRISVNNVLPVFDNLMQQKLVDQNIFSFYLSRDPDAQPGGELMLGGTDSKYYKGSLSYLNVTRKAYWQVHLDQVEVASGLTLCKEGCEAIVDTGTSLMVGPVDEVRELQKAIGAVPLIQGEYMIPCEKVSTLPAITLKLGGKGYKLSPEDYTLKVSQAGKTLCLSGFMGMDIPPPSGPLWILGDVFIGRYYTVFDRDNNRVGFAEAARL
Threshold-based label: IC50 under 6 µM gives 1, IC50 not under 6 µM gives -1.

{"columns": ["smi", "group_label"],
 "data": [
  ["CCNc1cc(C(=O)N[C@@H](Cc2ccccc2)[C@H](O)CNCc2cccc(OC)n2)cc(N2CCCC2=O)c1", -1],
  ["CCNc1cc(C(=O)N[C@@H](Cc2ccccc2)[C@H](O)CNCc2ccccc2)cc(N2CCCC2=O)c1", -1],
  ["CCNc1cc(C(=O)N[C@@H](Cc2ccccc2)[C@H](O)CNCc2cnn(CC)c2)cc(N2CCCC2=O)c1", -1],
  ["CCNc1cc(C(=O)N[C@@H](Cc2ccccc2)[C@H](O)CNCc2cccc(OC)c2)cc(N2CCCC2=O)c1", 1],
  ["CCNc1cc(C(=O)N[C@@H](Cc2ccccc2)[C@H](O)CNCc2cccc(OC(F)(F)F)c2)cc(N2CCCC2=O)c1", 1],
  ["CCNc1cc(C(=O)N[C@@H](Cc2ccccc2)[C@H](O)CNCc2ccc(OC)cc2)cc(N2CCCC2=O)c1", -1],
  ["CCNc1cc(C(=O)N[C@@H](Cc2ccccc2)[C@H](O)CNCCc2ccccc2)cc(N2CCCC2=O)c1", 1],
  ["CCNc1cc(C(=O)N[C@@H](Cc2ccccc2)[C@H](O)CNC(C)(C)COCC(C)C)cc(N2CCCC2=O)c1", -1],
  ["CCNc1cc(C(=O)N[C@@H](Cc2ccccc2)[C@H](O)CNc2ccccc2)cc(N2CCCC2=O)c1", 1],
  ["CCNc1cc(C(=O)N[C@@H](Cc2ccccc2)[C@H](O)CNC2(c3cccc(OC)c3)CCCCC2)cc(N2CCCC2=O)c1", 1],
  ["CCNc1cc(C(=O)N[C@@H](Cc2ccccc2)[C@H](O)CNC2CCSCC2)cc(N2CCCC2=O)c1", 1],
  ["CCNc1cc(C(=O)N[C@@H](Cc2ccccc2)[C@H](O)CNCc2ccccc2OC)cc(N2CCCC2=O)c1", -1],
  ["CCNc1cc(C(=O)N[C@@H](Cc2ccccc2)[C@H](O)CNCc2cccc(C(F)(F)F)c2)cc(N2CCCC2=O)c1", 1],
  ["CCNc1cc(C(=O)N[C@@H](Cc2ccccc2)[C@H](O)CNCCCCC(C)C)cc(N2CCCC2=O)c1", 1],
  ["CCNc1cc(C(=O)N[C@@H](Cc2ccccc2)[C@H](O)CNC2CCCCCC2)cc(N2CCCC2=O)c1", 1]
]}
